Data provenance is paper PMC9482650.

ASSAY TARGET: T1, RADIL, Q96JH8
T1 sequence (Q96JH8 971-1071, limits assumed, looked up): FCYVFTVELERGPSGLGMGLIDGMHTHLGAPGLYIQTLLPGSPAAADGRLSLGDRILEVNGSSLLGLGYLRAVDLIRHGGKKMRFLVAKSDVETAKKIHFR
ASSAY EXPLANATION: holdup assay
Set-up: key: below the threshold = too weak to quantify, mostly under pKd 3.1 to 4
RECORDED CONDITIONS: plain residues with an end cap or a label only (N-terminal biotin on a linker: ado-ado)
REPORTED PROPERTY: pKd

- BINDER: "AEASVACSLC [PTGIR, P43119]"
  REPORTED PROPERTY: "pKd"
  OBSERVED VALUE: 3.94
- BINDER: "KPGKGSETVV [FZD4, Q9ULV1]"
  REPORTED PROPERTY: "pKd"
  OBSERVED VALUE: 3.97
- BINDER: "ELSATVTTDC [TRIP6, Q15654]"
  REPORTED PROPERTY: "pKd"
  OBSERVED VALUE: 3.52
- BINDER: "NIAESLESLV [PTPRZ1, P23471]"
  REPORTED PROPERTY: "pKd"
  OBSERVED VALUE: 4.3
- BINDER: "ILRKSTTTTV [PRR16, Q569H4]"
  REPORTED PROPERTY: "pKd"
  OBSERVED VALUE: 3.64
- BINDER: "SLNANEVEWF [RNF130, Q86XS8]"
  REPORTED PROPERTY: "pKd"
  OBSERVED VALUE: 4.59
- BINDER: "GTGYDRKDYV [CLDN3, O15551]"
  REPORTED PROPERTY: "pKd"
  OBSERVED VALUE: 4.12
- BINDER: "DPAESMESLV [PTPRG, P23470]"
  REPORTED PROPERTY: "pKd"
  OBSERVED VALUE: 4.23
- BINDER: "PSHPRLQTHV [KIRREL2, Q6UWL6]"
  REPORTED PROPERTY: "pKd"
  OBSERVED VALUE: 3.73
